For each record, write down the corresponding TGI.
System: A498 renal
Assay: NCI tumour cell line growth inhibition, 48 h
Numbers only, in µM.

>  <COMPOUND>
Oc1ccc(Cl)cc1Cc1cc(Cl)cc(Cc2cc(Cl)ccc2O)c1O

>  <ENDPOINT_LABEL>
TGI

>  <READOUT_UNITS>
µM

>  <QUANTITATIVE_RESULT>
4.28

$$$$
>  <COMPOUND>
C=CC[Se]C(=O)c1ccccc1OC(C)=O

>  <ENDPOINT_LABEL>
TGI

>  <READOUT_UNITS>
µM

>  <QUANTITATIVE_RESULT>
5.62

$$$$
>  <COMPOUND>
C=C1C(=O)O[C@H]2[C@H]1CC/C(COC(=O)NCc1c[nH]c3ccc(OC)cc13)=C\CC[C@@]1(C)O[C@@H]21

>  <ENDPOINT_LABEL>
TGI

>  <READOUT_UNITS>
µM

>  <QUANTITATIVE_RESULT>
25.8

$$$$

For each entry beneath this line, provide reported TGI.
1. COc1cc(-c2nn(C)nc2-c2cc3ccccc3s2)cc(OC)c1OC
2. C[C@]1(O)CC(=O)c2c(c(-c3ccc4cc5c(c(O)c4c3O)C(=O)C[C@@](C)(O)C5)c3cccc(O)c3c2O)C1
3. COc1cccc2c3cccc(OC)c3c3[nH]cnc3c12
4. CC(C)(C)C1CCC2c3c([nH]c4ccccc34)C3C(=O)N(c4cccc(Cl)c4)C(=O)C3C2C1 (stereo not given)

1: 7.63; 2: 16.4; 3: 33.4; 4: 53.7

* * *

Tested on: ACHN renal
Experiment: NCI tumour cell line growth inhibition, 48 h
For each record, write down the corresponding TGI.

Some molecules with recorded TGI:
>  <MOLECULE>
Cn1ccnc1SC(F)(F)c1nc2ccccc2o1

>  <ENDPOINT_LABEL>
TGI

>  <RESULT>
> 100 µM

$$$$
>  <MOLECULE>
CCOC(=O)C(=CNC(Cc1c[nH]c2ccccc12)C(=O)OC)C(=O)OCC (stereo unspecified)

>  <ENDPOINT_LABEL>
TGI

>  <RESULT>
> 100 µM

$$$$
>  <MOLECULE>
CCOC(=O)N/N=C/C1=NN(C(=O)OCC)S(=O)C1C (stereo unspecified)

>  <ENDPOINT_LABEL>
TGI

>  <RESULT>
> 100 µM

$$$$
>  <MOLECULE>
Clc1cccc(Cn2cc(Cc3cn(Cc4cccc(Cl)c4)c4ccccc34)c3ccccc32)c1

>  <ENDPOINT_LABEL>
TGI

>  <RESULT>
> 100 µM

$$$$
>  <MOLECULE>
CCc1ccc(/C(C#N)=C/C=C/c2ccccc2)cc1

>  <ENDPOINT_LABEL>
TGI

>  <RESULT>
> 100 µM

$$$$

For each entry beneath this line, provide reported TGI.
1. Cn1nc(-c2ccccc2)c(C(=O)/C=C/c2ccccc2)c(N2CCCCC2)c1=O
2. CCOC(=O)c1c(NS(=O)(=O)c2ccc(Br)cc2)sc2c1CCCC2
3. O=C(c1ccc(F)c(F)c1Nc1ccc(I)cc1F)N1CC(O)([C@H]2CCCCN2)C1
4. COc1cc(/C=C2\N=C(c3ccccc3)N(c3nc4c(Cl)cc(Cl)cc4s3)C2=O)ccc1O
5. COc1ccc(NC(=O)CSc2nnc(Cc3ccccc3)o2)cc1
6. Nc1cc(OCc2ccccc2)c(OCc2ccccc2)cc1C=O

> 100 µM
14.6 µM
15.8 µM
82.2 µM
> 100 µM
93.5 µM

* * *

For each record, write down the corresponding TGI.
System: RPMI-8226 leukemia
Assay: NCI tumour cell line growth inhibition, 48 h

>  <MOLECULE>
O=C1OCC2=C1C(c1cccc([N+](=O)[O-])c1)c1cc3c(cc1N2CCO)CCC3 (stereo not drawn)

>  <TGI>
> 39 µM

$$$$
>  <MOLECULE>
C/C=C/C=C/C1=NN(c2cccc(S(=O)(=O)O)c2)C2(C1)C(Cl)C(=O)N2c1nc2ccccc2s1 (stereo not drawn)

>  <TGI>
> 51.6 µM

$$$$
>  <MOLECULE>
NNC(=O)CC(=O)Nc1ccc(C(=O)O)cc1

>  <TGI>
> 100 µM

$$$$

For each entry beneath this line, provide reported TGI.
1. O=CC(O)C(O)C(O)COc1cc(CO)cc2c1C(=O)c1ccccc1C2=O (stereo not drawn)
2. CC(=O)OCC1OC(O[C@@H]2C[C@H]3C(C)(C)[C@H](OC(C)=O)CC[C@]3(C)[C@H]3CC[C@@]45C[C@H](O)C[C@H](C)[C@@H]4CC=C5[C@@]32C)C(O)C(O)C1O (stereo partly drawn)
3. COc1ccc(S(=O)(=O)Nc2cc(/C=C\c3cc(OC)c(OC)c(OC)c3)cc(OC)c2OC)cc1OC
4. O=C(O[C@H]1CN[C@H](C#Cc2cc3ncnc(Nc4ccc(Cc5ccccc5)cc4)c3s2)C1)N1CCOCC1
5. CC(=O)N(/N=C\c1ccc([N+](=O)[O-])cc1)c1ccccc1

["> 100 µM", "6.02 µM", "> 100 µM", "24.9 µM", "> 100 µM"]

* * *

For each record, write down the corresponding TGI.
Tested on: UACC-257 melanoma
Assay: NCI tumour cell line growth inhibition, 48 h
One number for each entry, in µM.

Some compounds with recorded TGI:
>  <SMILES>
O=c1oc2c(Br)c(O)c(Br)cc2c2ccccc12

>  <QUANTITATIVE_RESULT>
61.7

$$$$
>  <SMILES>
O=C(CSc1nc2ccc(Cl)cc2c(=O)n1-c1ccccc1)N=Nc1c(O)[nH]c2ccc(F)cc12

>  <QUANTITATIVE_RESULT>
10.6

$$$$
>  <SMILES>
O=S(=O)(c1ccc2c(c1)C(=NO)c1cc(S(=O)(=O)N3CCCCC3)ccc1-2)N1CCCCC1

>  <QUANTITATIVE_RESULT>
0.32

$$$$
>  <SMILES>
O=[N+]([O-])c1ccc(Oc2cccnc2)c([N+](=O)[O-])c1

>  <QUANTITATIVE_RESULT>
22.3

$$$$

Attention now shifts to the item below.
Fill in: UACC-257 melanoma TGI for COc1ccc(C2=C(Br)C(=O)OC2)cc1Cl = 59.5

* * *

Tested on: XF 498 CNS
Assay: NCI tumour cell line growth inhibition, 48 h
For each record, write down the corresponding TGI.

Some molecules with recorded TGI:
>  <MOLECULE>
Cn1c(O)c(C=N)c(=O)n(C)c1=O

>  <RESULT>
> 100 µM

$$$$
>  <MOLECULE>
CSc1nc2nc(C)c(C)nc2c(=O)[nH]1

>  <RESULT>
> 100 µM

$$$$
>  <MOLECULE>
NC(N)=NS(=O)(=O)c1ccc(Nc2c3ccccc3nc3c(C(=O)N4CCN(CCO)CC4)ccc(Cl)c23)cc1

>  <RESULT>
> 100 µM

$$$$
>  <MOLECULE>
COc1ccc(Cc2cc(OC)c(OC)c(OC)c2)cc1O

>  <RESULT>
> 100 µM

$$$$
>  <MOLECULE>
Cn1c(=O)c2c(ncn2CCCCn2ccnc2[N+](=O)[O-])n(C)c1=O

>  <RESULT>
> 100 µM

$$$$
>  <MOLECULE>
Cc1cc(=O)[nH]c(CNC(=O)c2cccc3ccccc23)n1

>  <RESULT>
> 100 µM

$$$$

For each entry beneath this line, provide reported TGI.
1. COc1cccc(/C=N/[N-]C(N)=O)c1[O-].[Cu+2].[OH3+].c1cnc2c(c1)ccc1cccnc12
2. CCOC(=O)NC(=O)c1cn(CCCCCCCCCCC(=O)N2CCN(CCn3cc(C(=O)NC(=O)OCC)c(=O)[nH]c3=O)CC2)c(=O)[nH]c1=O
3. O=c1oc2c(ccc3occc32)c(N2CCCCC2)c1-c1ccccc1
4. O=C1C(CN(Cc2ccccc2)Cc2ccccc2)CCCC1CN(Cc1ccccc1)Cc1ccccc1 (centres undefined)
5. CNC(=S)NNC(=O)c1c(C)nc2sccn12
6. Nc1ccccc1S(=O)c1ccccc1 (centres undefined)
7. O=[N+]([O-])c1ccccc1S(=O)(=O)c1ccccc1[N+](=O)[O-]

["6.36 µM", "> 100 µM", "> 100 µM", "28.4 µM", "> 100 µM", "> 100 µM", "72.4 µM"]

Fill in: XF 498 CNS TGI for O=S1Cc2ccccc2CS1 (centres undefined) = 32.6 µM

* * *

Test system: U251 CNS
Assay: NCI tumour cell line growth inhibition, 48 h
For each record, write down the corresponding TGI.

>  <COMPOUND>
Cn1nc(-c2ccccc2)c(C(=O)/C=C/c2ccccc2)c(N2CCCCC2)c1=O

>  <ENDPOINT_LABEL>
TGI

>  <RESULT>
> 100 µM

$$$$
>  <COMPOUND>
CC(Br)C(=O)c1ccc2cc(Br)c3ccccc3c2c1 (configuration not stated)

>  <ENDPOINT_LABEL>
TGI

>  <RESULT>
26.5 µM

$$$$
>  <COMPOUND>
CCOC(=O)/C(=C/c1cc(OC)ccc1OC)CC(=O)O

>  <ENDPOINT_LABEL>
TGI

>  <RESULT>
> 100 µM

$$$$

For each entry beneath this line, provide reported TGI.
1. Cn1ccnc1SC(F)(F)c1nc2ccccc2o1
2. COC1OC(COCc2ccc(Cl)cc2)C(OCc2ccc(Cl)cc2)C1O (configuration not stated)

> 100 µM
29.1 µM

For each entry beneath this line, provide reported TGI.
1. CN(C)C(=O)c1nnsc1NN=O
2. CC(C)=CCC/C(C)=C/CC/C(C)=C/[C@@H]1[C@@H](CO)[C@]1(C)CC/C=C(\C)CCC=C(C)C
3. Nc1ccccc1S(=O)c1ccccc1 (configuration not stated)
4. COc1cc(C2=Nc3c/c(=C\c4c(O)[nH]c5ccc(Cl)cc45)ccc3=N2)cc(OC)c1OC
5. CC(=O)OCC1OC(O[C@@H]2C[C@H]3C(C)(C)[C@H](OC(C)=O)CC[C@]3(C)[C@H]3CC[C@@]45C[C@H](O)C[C@H](C)[C@@H]4CC=C5[C@@]32C)C(O)C(O)C1O (some centres not stated)
6. O=C(O)c1cnccc1-c1cc(=O)[nH]n1-c1ccccc1
7. Cc1cc(C)c2c(=O)n(CN3CCN(c4ccccc4)CC3)sc2n1

["> 100 µM", "> 100 µM", "> 100 µM", "3.91 µM", "10.3 µM", "> 100 µM", "56.2 µM"]

For each entry beneath this line, provide reported TGI.
1. CCOC(=O)c1c(N2CCOCC2)[nH]c(=O)c(C(c2c(O)c(C(=O)OCC)c(N3CCOCC3)[nH]c2=O)C(C)C)c1O
2. Cc1cc(C)nc(NC(=S)Nc2cccc(Cl)c2)c1
3. COc1cc(O)c2c(=O)c3ccccc3n(C)c2c1
4. Cc1ccccc1NC(=O)N/C(N)=N/c1nc2ccccc2s1
5. Cc1cc(N2CCOCC2)nc(N(CCNc2ccnc3cc(Cl)ccc23)Cc2ccco2)n1

["> 100 µM", "> 100 µM", "> 100 µM", "> 100 µM", "12.4 µM"]

For each entry beneath this line, provide reported TGI.
1. Clc1ccc(-c2nc(-c3c[nH]c4ncccc34)cs2)cc1
2. Nc1sccc1S(=O)(=O)c1ccsc1N
3. NC(Cc1cc(Br)c(O)c(Br)c1)C(=O)O (configuration not stated)
4. CCN(CC)CCC(=O)c1ccc(Oc2ccc(C)cc2)cc1
5. C/C=C/C=C/C1=NN(c2cccc(S(=O)(=O)O)c2)C2(C1)C(Cl)C(=O)N2c1nc2ccccc2s1 (configuration not stated)

1. > 100 µM
2. > 100 µM
3. > 100 µM
4. 30.7 µM
5. 23.8 µM
